// provenance: patent US20240376639A1

# measurementTarget: T1, Human Serum Albumin (human, UniProt P02768 25-609)
# T1 construct: Non-target control antigen in the ELISAs; also called HSA
# experiment: monoclonal phage ELISA, HSA as control antigen, OD450

binder	binding result
E4V2F3 (VNAR, Clone from the E4-V2 humanised library) VNAR: ASVNQSPSSLSASVGDRVTITCVLTDTNYWYSTSWFRKNPGTTNEDRIIISGRYVESVNNGPKSFTLTISSLQPEDFATYYCRAWTSFEEQVKDVYGGGTKVEIK	no binding
E4V2D10 (VNAR, Clone from the E4-V2 humanised library) VNAR: ASVNQSPSSLSASVGDRVTITCVLTGAGYWFATSWFRKNPGTSDKESISNSGRYVESVNKRSMSFTLTISSLQPEDFATYYCRAWTSFEEQVKDVYGGGTKVEIK	no binding
